Target: α-amylase (porcine pancreatic amylase) (Sus scrofa, UniProt P00690)
Sequence (P00690 16-511): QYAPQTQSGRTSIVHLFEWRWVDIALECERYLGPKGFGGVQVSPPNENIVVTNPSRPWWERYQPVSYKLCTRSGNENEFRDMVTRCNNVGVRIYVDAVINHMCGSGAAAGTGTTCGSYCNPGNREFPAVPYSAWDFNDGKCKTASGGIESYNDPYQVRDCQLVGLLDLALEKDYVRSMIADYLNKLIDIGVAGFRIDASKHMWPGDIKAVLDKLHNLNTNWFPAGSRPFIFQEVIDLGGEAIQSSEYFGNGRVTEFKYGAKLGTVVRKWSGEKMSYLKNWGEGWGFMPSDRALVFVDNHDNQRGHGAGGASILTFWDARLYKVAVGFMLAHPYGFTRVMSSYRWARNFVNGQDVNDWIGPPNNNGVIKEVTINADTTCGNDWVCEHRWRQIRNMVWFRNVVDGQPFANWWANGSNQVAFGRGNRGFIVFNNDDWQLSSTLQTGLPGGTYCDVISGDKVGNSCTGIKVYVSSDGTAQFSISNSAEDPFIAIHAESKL
assay-endpoint: IC50

smiles_entry=COC(=O)[C@@]1(O)c2ccccc2C(=O)[C@]1(O)CC=C(C)C measured="46.4 µM"
